- Tested on: J774.A1 murine macrophage cells
- ASSAY: MTT cell viability assay on macrophages
- Type: cell-based
READOUT: log10 of CC50 (log10 of the value in µM)
Please be aware that the numbers have been log10-transformed from CC50 in µM.

Example entries and their recorded answers appear below.
CCCCCCOC1O[C@H](CO)[C@@H](O)[C@H](O)[C@H]1O (stereo partly drawn) = 3.23
CCCCOC1O[C@H](COC(C)=O)[C@@H](OC(C)=O)[C@H](OC(C)=O)[C@H]1OC(C)=O (stereo partly drawn) = 2.22
CCOC1O[C@H](CO)[C@@H](O)[C@H](O)[C@H]1NC(C)=O (stereo partly drawn) [Gly1, ethyl glycoside N-Acetyl-D-glucosamine] = 2.39
CCCCCCOC1O[C@H](COC(C)=O)[C@@H](OC(C)=O)[C@H](OC(C)=O)[C@H]1OC(C)=O (stereo partly drawn) = 2.20
CCOC1O[C@H](COC(C)=O)[C@@H](OC(C)=O)[C@H](OC(C)=O)[C@H]1OC(C)=O (stereo partly drawn) = 2.48
CC(=O)OC[C@H]1OC(OC(C)C)[C@H](OC(C)=O)[C@@H](OC(C)=O)[C@@H]1OC(C)=O (stereo partly drawn) = 2.41

Exam item: Provide only the value of recorded log10 of CC50 for `CCCCO[C@H]1O[C@H](COC(C)=O)[C@@H](OC(C)=O)[C@H](OC(C)=O)[C@H]1NC(C)=O`
Marked response: 2.45

Exam item: Provide only the value of recorded log10 of CC50 for CCCOC1O[C@H](COC(C)=O)[C@@H](OC(C)=O)[C@H](OC(C)=O)[C@H]1NC(C)=O (stereo partly drawn)
Marked response: 2.38

Exam item: Provide only the value of recorded log10 of CC50 for `CC(=O)N[C@H]1[C@@H](OCCC(C)C)O[C@H](COC(C)=O)[C@@H](OC(C)=O)[C@@H]1OC(C)=O`
Marked response: 2.25
